Ref: the supplement of paper PMC11061612

Reported Bliss excess values for a set of compounds
Test system: NCI-H513 (Other Solid Carcinomas);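 note: after 72 h of two-drug dosing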
Run description: Bliss excess, mean over the matrix (fraction); higher = more synergy
Would you mind answering with just the numeric figure?

• COc1nnc2ccc(N3CCC(c4ccc(OCCN5CCN(C)C(=O)[C@H]5C)cc4)CC3)nn12 [AZD5153] + CN(CC[C@H](CSC1=CC=CC=C1)NC2=C(C=C(C=C2)S(=O)(=O)NC(=O)C3=CC=C(C=C3)N4CCC(CC4)[C@H](C5=CC=CC=C5C6=CC=C(C=C6)Cl)O)S(=O)(=O)C(F)(F)F)CCO [AZD4320] (first compound max 1 µM, 7x7, partner max 1 µM) = -0.0177

Then there is this compound:
Bliss excess for Cc1c2c(nn1C)CSCc1cc(n(C)n1)CSc1cc(c3ccccc3c1)OCCCc1c(C(=O)O)n(C)c3c-2c(Cl)ccc13 [AZD5991] + C[C@@H](Nc1cc(F)cc(F)c1)c1cc(C(=O)N(C)C)cc2c(=O)cc(N3CCOCC3)oc12 [AZD8186] (first compound max 1 µM, 7x7, partner max 3 µM) is 0.0221

----------
System: HuP-T3 (Pancreatic Carcinoma)
Run description: combination Emax (second highest fraction inhibited in the dose matrix, 72 h); higher = more inhibition; extreme values may be limits of the assay
Reported combination Emax values for a set of compounds

• CC1(C)CCC(CN2CCN(c3ccc(C(=O)NS(=O)(=O)c4ccc(NCC5CCOCC5)c([N+](=O)[O-])c4)c(Oc4cnc5[nH]ccc5c4)c3)CC2)=C(c2ccc(Cl)cc2)C1 [Venetoclax] + C1CN(CCC1(C(=O)N[C@@H](CCO)C2=CC=C(C=C2)Cl)N)C3=NC=NC4=C3C=CN4 [Capivasertib] (first compound max 1 µM, 7x7, partner max 3 µM) = 0.166
• COc1nnc2ccc(N3CCC(c4ccc(OCCN5CCN(C)C(=O)[C@H]5C)cc4)CC3)nn12 [AZD5153] + CC1(C)CCC(CN2CCN(c3ccc(C(=O)NS(=O)(=O)c4ccc(NCC5CCOCC5)c([N+](=O)[O-])c4)c(Oc4cnc5[nH]ccc5c4)c3)CC2)=C(c2ccc(Cl)cc2)C1 [Venetoclax] (first compound max 1 µM, 7x7, partner max 1 µM) = 0.517

combination Emax for CCN(CCO)CCCOc1ccc2c(Nc3cc(CC(=O)Nc4cccc(F)c4)[nH]n3)ncnc2c1 [AZD2811] + C[C@@H]1COCCN1C2=NC(=NC(=C2)C3(CC3)[S@](=N)(=O)C)C4=C5C=CNC5=NC=C4 [AZD6738] (first compound max 1 µM, 7x7, partner max 10 µM) is 0.589

----------
Reported combination Emax values for a set of compounds
System: JHH-7 (Hepatocellular Carcinoma)
Run description: combination Emax (second highest fraction inhibited in the dose matrix, 72 h); higher = more inhibition; extreme values may be limits of the assay
Would you mind answering with just the numeric figure?

Consider the following illustrative entries.
* C[C@@H](c1ccc2nccn2c1)n1nnc2ncc(-c3cnn(C)c3)nc21 [Savolitinib] + CC1(C)CCC(CN2CCN(c3ccc(C(=O)NS(=O)(=O)c4ccc(NCC5CCOCC5)c([N+](=O)[O-])c4)c(Oc4cnc5[nH]ccc5c4)c3)CC2)=C(c2ccc(Cl)cc2)C1 [Venetoclax] (first compound max 1 µM, 7x7, partner max 1 µM) | 0.114
* Cc1c2c(nn1C)CSCc1cc(n(C)n1)CSc1cc(c3ccccc3c1)OCCCc1c(C(=O)O)n(C)c3c-2c(Cl)ccc13 [AZD5991] + C[C@@H](Nc1cc(F)cc(F)c1)c1cc(C(=O)N(C)C)cc2c(=O)cc(N3CCOCC3)oc12 [AZD8186] (first compound max 1 µM, 7x7, partner max 3 µM) | 0.169
* CCc1c2c(nc3ccc(O)cc13)-c1cc3c(c(=O)n1C2)COC(=O)[C@]3(O)CC [SN-38] + CN(C)CCCOc1ccc(-c2ccc3ncc4c(c3c2)n(C2CCOCC2)c(=O)n4C)cn1 [AZD0156] (first compound max 0.3 µM, 7x7, partner max 1 µM) | 0.208
* Cn1cnc2c(F)c(Nc3ccc(Br)cc3Cl)c(C(=O)NOCCO)cc21 [Selumetinib] + C=CCn1c(=O)c2cnc(Nc3ccc(N4CCN(C)CC4)cc3)nc2n1-c1cccc(C(C)(C)O)n1 [AZD1775] (first compound max 10 µM, partner max 1 µM) | 0.229
* CCc1c2c(nc3ccc(O)cc13)-c1cc3c(c(=O)n1C2)COC(=O)[C@]3(O)CC [SN-38] + O=C(c1cc(Cc2n[nH]c(=O)c3ccccc23)ccc1F)N1CCN(C(=O)C2CC2)CC1 [Olaparib] (first compound max 0.3 µM, 7x7, partner max 10 µM) | 0.289
* Cc1nc(Nc2ncc(C(=O)Nc3c(C)cccc3Cl)s2)cc(N2CCN(CCO)CC2)n1 [Dasatinib] + CC(=O)Nc1cccc(-n2c(=O)n(C3CC3)c(=O)c3c(Nc4ccc(I)cc4F)n(C)c(=O)c(C)c32)c1 [Trametinib] (first compound max 2 µM, 7x7, partner max 1 µM) | 0.306

Then there is this compound:
combination Emax for Cn1cnc2c(F)c(Nc3ccc(Br)cc3Cl)c(C(=O)NOCCO)cc21 [Selumetinib] + CC(C)n1c(=O)n(C)c2cnc3cc(F)c(-c4ccc(OCCCN5CCCCC5)nc4)cc3c21 [AZD1390] (first compound max 10 µM, 7x7, partner max 0.3 µM) is 0.262
